Test: RP, Waters ACQUITY Premier BEH C18, 100 × 2.1 mm, 1.7 µm, 40 °C, 0.3 to 0.4 mL/min, estimated dead time 0.73 min; A: water + 0.1% formic acid; B: acetonitrile + 0.1% formic acid; gradient (min/%B) 0/0.5 0.1/0.5 10/80 10.1/99.5 12/0.5 12.1/0.5 14.5/0.5
Settings: stereoisomer not certain
Each entry below carries its reported LC retention time.
Readout kind: LC retention time (min)

• CCCCCCCCCCCCCCC(O)C(=O)O (stereo not given) [2-HYDROXYHEXADECANOIC ACID] = 8.98
• Cc1cc2c(C(C)C)c(O)c(O)c(C=O)c2c(O)c1-c1c(C)cc2c(C(C)C)c(O)c(O)c(C=O)c2c1O [(-)-GOSSYPOL] = 8.49
• CC(C(=O)O)c1ccc(O)cc1 (stereo not given) [4-HYDROXYPHENYL-2-PROPIONIC ACID] = 5.12
• O=C(O)CCCCCCCO [8-HYDROXYOCTANOATE] = 5.04
• CC12CCC(=O)C=C1CCC1C2CCC2(C)C1CCC2(O)C(=O)CO (stereo not given) [CORTEXOLONE] = 6.74
• CC(C)C(N)C(=O)O (stereo not given) [VALINE] = 1.21
• Nc1ncnc2c1ncn2C1OC(CSCCC(N)C(=O)O)C(O)C1O (stereo not given) [S-ADENOSYLHOMOCYSTEINE] = 3.08
• O=C(O)CCCCCCCCCCCNC(=O)NC1CCCCC1 [CUDA] = 7.47
• Oc1cccc(O)c1O [PYROGALLOL] = 2.89
• CCCCCCCCCC(O)CC(=O)O (stereo not given) [3-HYDROXYDODECANOIC ACID] = 7.65

====

Test: RP, Waters ACQUITY Premier BEH C18, 100 × 2.1 mm, 1.7 µm, 40 °C, 0.3 to 0.4 mL/min, estimated dead time 0.73 min; A: water + 0.1% formic acid; B: acetonitrile + 0.1% formic acid; gradient (min/%B) 0/0.5 0.1/0.5 10/80 10.1/99.5 12/0.5 12.1/0.5 14.5/0.5
Settings: stereoisomer not certain
Structures can show the parent of a compound that is named as a salt.
Readout kind: LC retention time (min)

* Nc1cc(C(=O)O)ccc1O [3-AMINO-4-HYDROXYBENZOATE] | 1.37
* O=C1c2c(O)cc(O)cc2OCC1c1ccc(O)cc1 (stereo not given) [DIHYDROGENISTEIN] | 5.97
* CC(CC(=O)O)C(=O)O (stereo not given) [METHYLSUCCINIC ACID] | 3.75
* CCCCCCCCCCCCCCCCCC(=O)NCCO [STEAROYLETHANOLAMIDE] | 9.74
* O=C(O)CCCCCCCC(=O)O [AZELATE] | 5.52
* NCc1[nH]cc(CCC(=O)O)c1CC(=O)O [PORPHOBILINOGEN] | 3.51
* Nc1nc2nccnc2c(=O)[nH]1 [PTERIN] | 2.44
* O=[N+]([O-])c1ccc(O)cc1O [2,4-DIHYDROXY-NITROPHENOL] | 6.02
* CC1(C)OC2CC(=O)OCC23C1CC(=O)C1(C)C3CCC2(C)C(c3ccoc3)OC(=O)C3OC321 (stereo not given) [LIMONIN] | 6.87
* COc1ccc(-c2cc(=O)c3c(OC)c(OC)c(OC)c(OC)c3o2)cc1 [TANGERETIN] | 7.26
* COc1cc(CC2C(=O)OCC2Cc2ccc(OC)c(OC)c2)ccc1O (stereo not given) [ARCTIGENIN] | 6.63
* O=C(O)CNC(=O)c1ccc(O)cc1 [4-HYDROXYHIPPURIC ACID] | 2.42
* O=S(=O)(O)Oc1c[nH]c2ccccc12 [INDOXYL SULFATE] | 4.58
* N#CC(OC1OC(COC2OC(CO)C(O)C(O)C2O)C(O)C(O)C1O)c1ccccc1 (stereo not given) [AMYGDALIN] | 3.78
* c1ncc2[nH]cnc2n1 [PURINE] | 2.2
* CC(CCC(=O)NCC(=O)O)C1CCC2C3C(O)CC4CC(O)CCC4(C)C3CC(O)C12C (stereo not given) [GLYCOCHOLATE] | 6.68
* CCCCCC=CCC=CCC=CCC=CCCCC(=O)O [ARACHIDONIC ACID] | 9
* Cn1c(=O)[nH]c2[nH]c(=O)[nH]c2c1=O [1-METHYLURIC ACID] | 1.21
* COC(=O)CCC(=O)OC [DIMETHYL SUCCINATE] | 3.97
* CCCCCC(=O)NCC(=O)O [HEXANOYLGLYCINE] | 5.2

====

In this section we review reported LC retention time values for a set of compounds.
Test: RP, Waters ACQUITY Premier BEH C18, 100 × 2.1 mm, 1.7 µm, 40 °C, 0.3 to 0.4 mL/min, estimated dead time 0.73 min; A: water + 0.1% formic acid; B: acetonitrile + 0.1% formic acid; gradient (min/%B) 0/0.5 0.1/0.5 10/80 10.1/99.5 12/0.5 12.1/0.5 14.5/0.5
Settings: stereoisomer not certain
Readout kind: LC retention time (min)

* NCCc1c[nH]c2ccccc12 [TRYPTAMINE] | 4.34
* O=C(O)c1ccccc1O [SALICYLATE] | 5.97
* CCCCCC(O)C(O)CC=CCCCCCCCC(=O)O (stereo not given) [12,13-DIHOME] | 7.5
* O=C(O)C=Cc1c[nH]c2ccccc12 [INDOLEACRYLIC ACID] | 5.61
* Nc1ccn(C2OC(COP(=O)(O)O)C(O)C2O)c(=O)n1 (stereo not given) [CYTIDINE MONOPHOSPHATE] | 0.941
* O=C(O)c1ccc(O)cc1 [4-HYDROXYBENZOATE] | 4.37
* CCCCCCCCC=CCCCCCCCC(=O)O [ELAIDATE] | 10
* CC(C)CC(=O)C(=O)O [KETOLEUCINE] | 4.02
* O=C(C=Cc1ccc(O)c(O)c1)OC1CC(O)(C(=O)O)CC(O)C1OC(=O)C=Cc1ccc(O)c(O)c1 (stereo not given) [4,5-DI-O-CAFFEOYLQUINIC ACID] | 4.78
* O=C(O)CCCCCCCCCCCO [OMEGA-HYDROXYDODECANOATE] | 6.99

====

Test: RP, Waters ACQUITY Premier BEH C18, 100 × 2.1 mm, 1.7 µm, 40 °C, 0.3 to 0.4 mL/min, estimated dead time 0.73 min; A: water + 0.1% formic acid; B: acetonitrile + 0.1% formic acid; gradient (min/%B) 0/0.5 0.1/0.5 10/80 10.1/99.5 12/0.5 12.1/0.5 14.5/0.5
Settings: stereoisomer not certain
# note: exactly 7 min is not below, so it is No; use Yes for LC retention time strictly under it

• COc1cc(CNC(=O)CCCCC=CC(C)C)ccc1O [CAPSAICIN] = No
• CC(=O)NCCc1cnc[nH]1 [N-ACETYLHISTAMINE] = Yes
• CC1OC(OC2C(O)C(OCCc3ccc(O)c(O)c3)OC(CO)C2OC(=O)C=Cc2ccc(O)c(O)c2)C(O)C(O)C1O (centres undefined) [ACTEOSIDE] = Yes
• CCCCC(CC)COC(=O)c1ccccc1C(=O)OCC(CC)CCCC (centres undefined) [BIS(2-ETHYLHEXYL)PHTHALATE] = No
• Cc1cn(C2OC(CO)C(O)C2O)c(=O)[nH]c1=O (centres undefined) [RIBOTHYMIDINE] = Yes
• CC(=O)Nc1ccc(OC2OC(C(=O)O)C(O)C(O)C2O)cc1 (centres undefined) [4-ACETAMIDOPHENYLGLUCURONIDE] = Yes
• O=c1[nH]c(=O)c2[nH]c(=O)[nH]c2[nH]1 [URATE] = Yes
• CCCCC(=O)C(=O)O [2-KETOHEXANOIC ACID] = Yes

====

Test: RP, Waters ACQUITY Premier BEH C18, 100 × 2.1 mm, 1.7 µm, 40 °C, 0.3 to 0.4 mL/min, estimated dead time 0.73 min; A: water + 0.1% formic acid; B: acetonitrile + 0.1% formic acid; gradient (min/%B) 0/0.5 0.1/0.5 10/80 10.1/99.5 12/0.5 12.1/0.5 14.5/0.5
Settings: stereoisomer not certain
Structures can show the parent of a compound that is named as a salt.
log10(LC retention time) values by entry
Readout kind: log10(LC retention time) (log10 of the value in min)

- O=C(CCc1ccc(O)cc1)c1c(O)cc(O)cc1O [PHLORETIN]: 0.78
- O=C(O)Cc1c[nH]c2ccccc12 [INDOLEACETIC ACID]: 0.76
- COc1ccc2c3c([nH]c2c1)C(C)=NCC3 [HARMALINE]: 0.65
- CCC(C)C(=O)C(=O)O (stereo not given) [3-METHYL-2-OXOVALERATE]: 0.65
- CC1OC(Oc2c(-c3cc(O)c(O)c(O)c3)oc3cc(O)cc(O)c3c2=O)C(O)C(O)C1O (stereo not given) [MYRICITRIN]: 0.64
- CC(C=CC=C(C)C=CC1=C(C)C(=O)CCC1(C)C)=CC=CC=C(C)C=CC=C(C)C=CC1=C(C)C(=O)CCC1(C)C [CANTHAXANTHIN]: 1.05
- CC(O)(CCO)CC(=O)O (stereo not given) [MEVALONATE]: 0.44
- NC(=O)c1ncn(C2OC(CO)C(O)C2O)c1N (stereo not given) [AICA-RIBOSIDE]: -0.02
- O=C(O)Cc1cccc(O)c1 [3-HYDROXYPHENYLACETATE]: 0.55
- O=C(O)CCc1c[nH]c2ccccc12 [INDOLE-3-PROPIONIC ACID]: 0.79
- CC1C(=O)OC2CC34C5CC(C(C)(C)C)C36C(OC(=O)C6O)OC4(C(=O)O5)C21O (stereo not given) [GINKGOLIDE A]: 0.75
- CC12CCC(=O)C=C1CCC1C2C(O)CC2(C)C1CCC2(O)C(=O)CO (stereo not given) [CORTISOL]: 0.78
- CS(=O)CCCCN=C=S (stereo not given) [SULFORAPHANE]: 0.67
- Cc1cc(O)c2c(c1)C(=O)c1cc(O)cc(O)c1C2=O [EMODIN]: 0.88
- O=C(C=CC=Cc1ccc2c(c1)OCO2)N1CCCCC1 [PIPERINE]: 0.86
- O=C(O)C(=O)c1ccccc1 [PHENYLGLYOXYLIC ACID]: 0.74
- CC(=O)NCC(=O)O [N-ACETYLGLYCINE]: 0.10
- Cc1ccc(OS(=O)(=O)O)cc1 [P-CRESOL SULFATE]: 0.66
- CC(C)(CO)C(O)C(=O)NCCC(=O)O (stereo not given) [PANTOTHENATE]: 0.57
- CC12CCC(=O)C=C1CCC1C2C(=O)CC2(C)C1CCC2(O)C(=O)CO (stereo not given) [CORTISONE]: 0.79
